- Tested on: Voltage-gated inwardly rectifying potassium channel KCNH2 (Homo sapiens, UniProt Q12809)
- Sequence (Q12809 whole entry): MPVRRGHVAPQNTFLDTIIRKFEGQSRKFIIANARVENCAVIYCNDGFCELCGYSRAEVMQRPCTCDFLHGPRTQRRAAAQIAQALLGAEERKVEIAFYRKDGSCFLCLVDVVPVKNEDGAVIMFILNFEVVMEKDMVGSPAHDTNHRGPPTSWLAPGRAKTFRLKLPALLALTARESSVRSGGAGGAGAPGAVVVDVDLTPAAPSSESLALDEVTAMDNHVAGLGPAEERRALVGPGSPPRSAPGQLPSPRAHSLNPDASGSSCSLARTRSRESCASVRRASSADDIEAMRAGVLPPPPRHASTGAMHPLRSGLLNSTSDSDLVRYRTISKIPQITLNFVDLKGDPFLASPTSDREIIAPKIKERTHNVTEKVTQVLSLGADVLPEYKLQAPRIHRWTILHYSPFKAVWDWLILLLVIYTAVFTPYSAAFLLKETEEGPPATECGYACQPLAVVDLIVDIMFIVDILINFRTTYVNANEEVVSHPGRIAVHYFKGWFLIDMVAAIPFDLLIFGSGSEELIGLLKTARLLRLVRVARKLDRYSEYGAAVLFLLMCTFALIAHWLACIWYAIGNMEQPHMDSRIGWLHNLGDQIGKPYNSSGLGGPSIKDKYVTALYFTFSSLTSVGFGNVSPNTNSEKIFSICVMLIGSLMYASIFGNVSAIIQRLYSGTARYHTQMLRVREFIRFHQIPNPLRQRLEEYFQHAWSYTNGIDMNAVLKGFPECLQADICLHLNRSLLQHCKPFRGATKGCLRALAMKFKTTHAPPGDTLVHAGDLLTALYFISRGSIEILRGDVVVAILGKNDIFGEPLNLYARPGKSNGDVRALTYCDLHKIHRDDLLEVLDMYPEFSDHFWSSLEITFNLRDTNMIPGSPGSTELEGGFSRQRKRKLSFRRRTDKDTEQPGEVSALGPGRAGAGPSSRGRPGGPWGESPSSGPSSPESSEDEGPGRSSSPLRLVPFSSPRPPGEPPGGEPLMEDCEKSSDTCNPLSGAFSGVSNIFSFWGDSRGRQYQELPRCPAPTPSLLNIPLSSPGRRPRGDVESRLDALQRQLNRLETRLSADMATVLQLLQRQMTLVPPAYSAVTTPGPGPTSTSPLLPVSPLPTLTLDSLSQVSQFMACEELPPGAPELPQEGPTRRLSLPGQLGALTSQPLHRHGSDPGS
pIC50: −log10 of the molar value.
# label = yes if pIC50 >= 5 else no

Query: Answer whether pIC50 of CC(C(O)c1ccc2c(c1)COC(=O)N2)N1CCC(O)(c2ccc(F)cc2)CC1 (racemic) is greater than or equal to 5.
Reply: yes

Query: Try this molecule too: O=C1CCc2cc(C(O)CN3CCC(O)(c4cccc(F)c4)CC3)ccc2N1 (single isomer, unassigned; (-))
Reply: no

Query: Try this molecule too: CC(C(O)c1ccc2c(c1)CN(C)C(=O)N2)N1CCC(O)(c2ccc(F)cc2)CC1 (racemic)
Reply: yes

Query: Try this molecule too: CC(C(O)c1ccc2c(c1)OCC(=O)N2)N1CCC(O)(c2ccc(F)cc2)CC1 (racemic)
Reply: yes

Query: Try this molecule too: CC(C(O)c1ccc2c(c1)CCC(=O)N2)N1CCC(O)(c2ccc3c(c2)COCC3)CC1 (racemic)
Reply: no

Query: Try this molecule too: CC(C(O)c1ccc2[nH]c(=O)oc2c1)N1CCC(O)(c2ccc(F)cc2)CC1 (racemic)
Reply: yes

====

- Tested on: Glutamate receptor ionotropic, NMDA 2B (Rattus norvegicus, UniProt P35439+Q00960)
- Sequence (Q00960 whole entry, one chain of several): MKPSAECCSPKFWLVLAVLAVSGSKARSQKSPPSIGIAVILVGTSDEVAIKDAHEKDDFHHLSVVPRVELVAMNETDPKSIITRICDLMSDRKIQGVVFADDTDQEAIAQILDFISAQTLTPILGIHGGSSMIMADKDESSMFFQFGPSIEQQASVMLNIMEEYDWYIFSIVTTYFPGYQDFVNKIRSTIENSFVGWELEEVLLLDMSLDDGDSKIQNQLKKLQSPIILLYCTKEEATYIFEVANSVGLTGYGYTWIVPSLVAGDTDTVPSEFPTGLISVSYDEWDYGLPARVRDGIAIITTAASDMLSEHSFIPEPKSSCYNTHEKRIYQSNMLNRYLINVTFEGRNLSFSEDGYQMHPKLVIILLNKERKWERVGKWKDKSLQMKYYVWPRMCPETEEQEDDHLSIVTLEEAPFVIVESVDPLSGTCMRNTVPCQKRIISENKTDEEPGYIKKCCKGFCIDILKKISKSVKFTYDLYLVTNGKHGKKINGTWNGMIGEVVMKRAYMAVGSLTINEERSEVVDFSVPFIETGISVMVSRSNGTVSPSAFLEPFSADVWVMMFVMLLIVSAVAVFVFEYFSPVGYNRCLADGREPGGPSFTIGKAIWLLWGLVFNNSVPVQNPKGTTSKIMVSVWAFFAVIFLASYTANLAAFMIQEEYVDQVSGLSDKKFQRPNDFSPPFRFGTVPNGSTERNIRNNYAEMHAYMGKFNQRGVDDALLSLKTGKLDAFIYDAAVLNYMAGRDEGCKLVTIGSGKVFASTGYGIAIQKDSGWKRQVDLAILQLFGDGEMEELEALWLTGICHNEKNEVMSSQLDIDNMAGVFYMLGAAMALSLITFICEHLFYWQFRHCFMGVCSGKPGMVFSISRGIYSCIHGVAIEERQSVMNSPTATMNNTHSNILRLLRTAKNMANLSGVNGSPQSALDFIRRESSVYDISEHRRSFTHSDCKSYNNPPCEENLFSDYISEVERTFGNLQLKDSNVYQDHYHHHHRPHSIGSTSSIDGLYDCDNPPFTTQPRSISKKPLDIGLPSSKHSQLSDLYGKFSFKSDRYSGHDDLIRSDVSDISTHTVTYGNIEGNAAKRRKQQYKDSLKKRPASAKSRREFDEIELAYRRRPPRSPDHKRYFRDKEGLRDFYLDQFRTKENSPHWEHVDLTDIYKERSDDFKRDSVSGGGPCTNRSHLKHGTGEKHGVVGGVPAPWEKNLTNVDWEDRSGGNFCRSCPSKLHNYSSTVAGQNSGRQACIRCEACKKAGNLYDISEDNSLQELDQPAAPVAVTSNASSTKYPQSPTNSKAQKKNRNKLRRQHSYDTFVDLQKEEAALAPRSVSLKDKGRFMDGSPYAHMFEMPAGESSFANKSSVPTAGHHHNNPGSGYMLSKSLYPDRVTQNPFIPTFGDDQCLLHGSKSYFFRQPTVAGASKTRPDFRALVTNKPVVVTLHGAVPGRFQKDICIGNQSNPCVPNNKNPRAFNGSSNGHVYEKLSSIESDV
- Method notes: Displacement of [3H]racemic CP-101606 from rat NR2B receptor in P2 membrane
- Format: cell membranes
Recorded log10(IC50) by entry
Give log10 of IC50, with IC50 taken in nM.

As a guide, the following entries are already answered.
Molecule	Measured metric	Test result
O=C1CCc2cc(C(O)CN3CCC(O)(c4cccc(F)c4)CC3)ccc2N1 (single isomer, unassigned; (-))	log10(IC50)	0.70
CC(C(O)c1ccc2c(c1)CCC(=O)N2)N1CCC(O)(c2cccc(COc3ccccc3)c2)CC1 (racemic)	log10(IC50)	0.80
Cc1cc(O)ccc1C(O)C(C)N1CCC(O)(c2ccc(F)cc2)CC1 (racemic)	log10(IC50)	1.20
CC(C(O)c1ccc2c(c1)CCC(=O)N2)N1CCC(O)(c2ccc(F)cc2)CC1 (racemic)	log10(IC50)	1.04
CC(C(O)c1ccc2c(c1)CCC(=O)N2)N1CCC(O)(c2cccc(F)c2)CC1 (racemic)	log10(IC50)	1.00

Query: Consider the molecule shown here: CC(C(O)c1ccc2[nH]c(=O)oc2c1)N1CCC(O)(c2ccc(F)cc2)CC1 (racemic) What is its recorded log10(IC50)?
Reply: 1.61

Query: Try this molecule too: O=C1CCc2cc(C(O)CN3CCC(O)(c4cccc(F)c4)CC3)ccc2N1 (racemic)
Reply: 0.65

Query: Try this molecule too: CC(C(O)c1ccc2c(c1)CCC(=O)N2)N1CCC(O)(c2ccc(Cl)cc2)CC1 (racemic)
Reply: 0.82

Query: Try this molecule too: Cc1ccc(C2(O)CCN(C(C)C(O)c3ccc4c(c3)CCC(=O)N4)CC2)cc1 (racemic)
Reply: 0.96

Query: Try this molecule too: CC(C(O)c1ccc(O)c(-c2ccccc2)c1)N1CCC(O)(c2ccc(F)cc2)CC1 (racemic)
Reply: 2.76

Query: Try this molecule too: CC(C(O)c1ccc2c(c1)OCC(=O)N2)N1CCC(O)(c2ccc(F)cc2)CC1 (racemic)
Reply: 0.94

Query: Try this molecule too: COc1cccc(C2(O)CCN(C(C)C(O)c3ccc4c(c3)CCC(=O)N4)CC2)c1 (racemic)
Reply: 0.92

Values were extracted from ChEMBL document CHEMBL1139807.
